- system: UniProt:P10276
- Sequence (P10276 whole entry): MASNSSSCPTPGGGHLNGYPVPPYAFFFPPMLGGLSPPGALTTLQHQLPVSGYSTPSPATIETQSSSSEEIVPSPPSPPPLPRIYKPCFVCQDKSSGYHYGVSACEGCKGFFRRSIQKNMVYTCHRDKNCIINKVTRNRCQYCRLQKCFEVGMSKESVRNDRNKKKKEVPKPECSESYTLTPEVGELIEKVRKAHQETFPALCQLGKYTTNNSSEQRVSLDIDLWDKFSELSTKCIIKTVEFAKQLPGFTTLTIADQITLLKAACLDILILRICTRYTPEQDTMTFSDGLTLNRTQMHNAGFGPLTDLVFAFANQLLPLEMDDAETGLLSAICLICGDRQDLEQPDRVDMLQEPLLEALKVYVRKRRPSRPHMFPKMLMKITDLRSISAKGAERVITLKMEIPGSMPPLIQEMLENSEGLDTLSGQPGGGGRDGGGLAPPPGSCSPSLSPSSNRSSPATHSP
- test: Co-transfection (cis-trans) assay in CV-1 cells, RARα
- Type: cell-based
- Design: expressed in transfected cells; host or cells: CV-1 (monkey kidney)
- reportedConditions: CV-1, maximal response relative to all-trans-retinoic acid at 10^−5 M, read-out: Efficacy
- Description: The co-transfection assay provides a mechanism to evaluate the ability of a compound to modulate the transcription response initiated by an intracellular receptor. […] Berger, et al., J. Steroid Biochem Molec. Briefly, the co-transfection assay involves the introduction of two plasmids by transient transfection into a retinoid receptor-negative mammalian cell background. The first plasmid contains a retinoid receptor cDNA and directs constitutive expression of the encoded receptor. […]
readoutLabel: Emax at 10 µM (%)

| compound | system | unitText | observedMeasurement |
| --- | --- | --- | --- |
| CC1=C(C=CC2CCCCC2/C=C/C(C)=C/C(=O)O)C(C)(C)CCC1 (stereo not drawn) [Compound 100] | UniProt:P10276 | % | 9 |
| C/C(=C/C=C/C(C)=C/C(=O)O)c1cc2c(cc1C)C(C)(C)CCC2(C)C [Compound 128] | UniProt:P10276 | % | 12 |
